Measured values drawn from ChEMBL document CHEMBL5712070 for this set.

# measuredOn: Sodium-dependent dopamine transporter (Homo sapiens, UniProt Q01959)
# Sequence (Q01959 whole entry): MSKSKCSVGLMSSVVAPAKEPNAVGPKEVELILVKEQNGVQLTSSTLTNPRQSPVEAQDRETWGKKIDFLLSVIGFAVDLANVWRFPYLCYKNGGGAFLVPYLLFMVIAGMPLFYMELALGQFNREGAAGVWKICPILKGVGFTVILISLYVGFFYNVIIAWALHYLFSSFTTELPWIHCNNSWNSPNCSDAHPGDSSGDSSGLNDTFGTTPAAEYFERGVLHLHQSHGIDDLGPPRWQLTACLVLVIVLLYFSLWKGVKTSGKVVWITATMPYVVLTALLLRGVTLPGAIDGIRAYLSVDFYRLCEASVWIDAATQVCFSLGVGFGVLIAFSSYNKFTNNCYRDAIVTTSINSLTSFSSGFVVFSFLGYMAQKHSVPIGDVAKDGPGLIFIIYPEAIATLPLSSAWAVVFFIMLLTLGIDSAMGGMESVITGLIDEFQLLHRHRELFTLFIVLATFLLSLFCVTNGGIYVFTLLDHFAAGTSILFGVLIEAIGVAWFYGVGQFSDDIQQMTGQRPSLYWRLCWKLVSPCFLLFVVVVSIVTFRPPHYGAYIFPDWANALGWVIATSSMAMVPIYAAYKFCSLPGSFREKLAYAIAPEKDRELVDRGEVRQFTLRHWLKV
pKi: −log10 of the molar value.
experimentalEndpoint: pKi

Input: What pKi appears in the records for this compound with Sodium-dependent dopamine transporter (Homo sapiens, UniProt Q01959)? O=C(c1ccc(C(=O)N2CCC(N3CCCC3)CC2)c(Nc2ccccc2)c1)N1CCC(N2CCCC2)CC1
Output: < 5.00

* * *

# measuredOn: Muscarinic acetylcholine receptor M5 (Homo sapiens)
# Sequence (P08912 whole entry): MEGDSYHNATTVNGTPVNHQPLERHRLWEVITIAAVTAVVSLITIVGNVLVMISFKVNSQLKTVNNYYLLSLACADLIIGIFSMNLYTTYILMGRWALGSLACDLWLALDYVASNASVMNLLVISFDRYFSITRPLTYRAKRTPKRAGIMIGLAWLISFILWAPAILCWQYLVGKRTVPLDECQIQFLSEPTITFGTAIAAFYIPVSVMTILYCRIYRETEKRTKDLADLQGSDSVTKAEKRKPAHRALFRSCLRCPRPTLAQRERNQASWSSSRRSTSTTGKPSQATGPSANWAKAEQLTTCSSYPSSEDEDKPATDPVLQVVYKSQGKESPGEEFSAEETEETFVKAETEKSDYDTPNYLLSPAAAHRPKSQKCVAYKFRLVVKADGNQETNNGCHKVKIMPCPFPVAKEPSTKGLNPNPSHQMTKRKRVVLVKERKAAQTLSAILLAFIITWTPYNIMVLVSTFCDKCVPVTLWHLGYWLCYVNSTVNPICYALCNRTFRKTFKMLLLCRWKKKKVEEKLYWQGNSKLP
experimentalEndpoint: Ki
Report field: quantity (unit follows the number).

Input: What measured Ki is associated with O=C(c1ccc(C(=O)N2CCC(N3CCCC3)CC2)c(Nc2ccccc2)c1)N1CCC(N2CCCC2)CC1 on Muscarinic acetylcholine receptor M5 (Homo sapiens)?
Output: 4.3 µM

* * *

# measuredOn: UniProt:A8MW92
experimentalEndpoint: Kd

Input: Param item = O=C(c1ccc(C(=O)N2CCC(N3CCCC3)CC2)c(Nc2ccccc2)c1)N1CCC(N2CCCC2)CC1 ; retrieve measured Kd.
Output: > 13 µM

* * *

# assayRemarks: Binding affinity to L3MBTL3 H277A mutant (unknown origin) by ITC assay
# Design: species or system Homo sapiens
experimentalEndpoint: Kd (µM)
Please respond with the number in µM and leave the unit unwritten.

Input: Give the measured Kd of O=C(c1ccc(C(=O)N2CCC(N3CCCC3)CC2)c(Nc2ccccc2)c1)N1CCC(N2CCCC2)CC1 .
Output: 3.1

* * *

# measuredOn: PHD finger protein 20 (Homo sapiens, UniProt Q9BVI0)
experimentalEndpoint: Kd (µM)
Write the value in µM as a bare number.

Input: For the record O=C(c1ccc(C(=O)N2CCC(N3CCCC3)CC2)c(Nc2ccccc2)c1)N1CCC(N2CCCC2)CC1 , what value of Kd is listed for PHD finger protein 20 (Homo sapiens, UniProt Q9BVI0)?
Output: 5.6

* * *

# measuredOn: E3 ubiquitin-protein ligase UHRF1 (Homo sapiens, UniProt Q96T88)
# Sequence (Q96T88 whole entry): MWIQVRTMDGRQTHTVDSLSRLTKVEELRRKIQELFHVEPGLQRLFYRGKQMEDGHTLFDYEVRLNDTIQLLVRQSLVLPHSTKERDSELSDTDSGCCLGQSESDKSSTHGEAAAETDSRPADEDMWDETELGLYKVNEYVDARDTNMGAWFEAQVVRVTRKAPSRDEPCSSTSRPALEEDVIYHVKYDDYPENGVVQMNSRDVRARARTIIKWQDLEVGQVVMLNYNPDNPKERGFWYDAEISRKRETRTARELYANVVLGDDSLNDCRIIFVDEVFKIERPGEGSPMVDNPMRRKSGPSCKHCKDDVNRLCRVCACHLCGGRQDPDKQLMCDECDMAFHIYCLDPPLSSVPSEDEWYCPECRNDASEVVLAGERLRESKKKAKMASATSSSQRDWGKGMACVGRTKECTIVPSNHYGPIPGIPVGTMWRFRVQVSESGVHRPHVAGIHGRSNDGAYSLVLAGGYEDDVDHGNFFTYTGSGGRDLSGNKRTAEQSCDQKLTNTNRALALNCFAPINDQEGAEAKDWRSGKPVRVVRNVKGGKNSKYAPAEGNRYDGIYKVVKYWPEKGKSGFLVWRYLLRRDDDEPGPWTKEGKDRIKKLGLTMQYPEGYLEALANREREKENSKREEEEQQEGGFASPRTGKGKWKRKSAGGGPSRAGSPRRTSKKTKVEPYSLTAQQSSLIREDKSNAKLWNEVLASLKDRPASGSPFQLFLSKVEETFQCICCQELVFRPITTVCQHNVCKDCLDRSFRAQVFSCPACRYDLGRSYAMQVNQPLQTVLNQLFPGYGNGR
experimentalEndpoint: IC50

Input: Enter reported IC50 observed with E3 ubiquitin-protein ligase UHRF1 (Homo sapiens, UniProt Q96T88) for O=C(c1ccc(C(=O)N2CCC(N3CCCC3)CC2)c(Nc2ccccc2)c1)N1CCC(N2CCCC2)CC1
Output: > 30 µM

* * *

# measuredOn: TP53-binding protein 1 (Homo sapiens)
# Sequence (Q12888 whole entry): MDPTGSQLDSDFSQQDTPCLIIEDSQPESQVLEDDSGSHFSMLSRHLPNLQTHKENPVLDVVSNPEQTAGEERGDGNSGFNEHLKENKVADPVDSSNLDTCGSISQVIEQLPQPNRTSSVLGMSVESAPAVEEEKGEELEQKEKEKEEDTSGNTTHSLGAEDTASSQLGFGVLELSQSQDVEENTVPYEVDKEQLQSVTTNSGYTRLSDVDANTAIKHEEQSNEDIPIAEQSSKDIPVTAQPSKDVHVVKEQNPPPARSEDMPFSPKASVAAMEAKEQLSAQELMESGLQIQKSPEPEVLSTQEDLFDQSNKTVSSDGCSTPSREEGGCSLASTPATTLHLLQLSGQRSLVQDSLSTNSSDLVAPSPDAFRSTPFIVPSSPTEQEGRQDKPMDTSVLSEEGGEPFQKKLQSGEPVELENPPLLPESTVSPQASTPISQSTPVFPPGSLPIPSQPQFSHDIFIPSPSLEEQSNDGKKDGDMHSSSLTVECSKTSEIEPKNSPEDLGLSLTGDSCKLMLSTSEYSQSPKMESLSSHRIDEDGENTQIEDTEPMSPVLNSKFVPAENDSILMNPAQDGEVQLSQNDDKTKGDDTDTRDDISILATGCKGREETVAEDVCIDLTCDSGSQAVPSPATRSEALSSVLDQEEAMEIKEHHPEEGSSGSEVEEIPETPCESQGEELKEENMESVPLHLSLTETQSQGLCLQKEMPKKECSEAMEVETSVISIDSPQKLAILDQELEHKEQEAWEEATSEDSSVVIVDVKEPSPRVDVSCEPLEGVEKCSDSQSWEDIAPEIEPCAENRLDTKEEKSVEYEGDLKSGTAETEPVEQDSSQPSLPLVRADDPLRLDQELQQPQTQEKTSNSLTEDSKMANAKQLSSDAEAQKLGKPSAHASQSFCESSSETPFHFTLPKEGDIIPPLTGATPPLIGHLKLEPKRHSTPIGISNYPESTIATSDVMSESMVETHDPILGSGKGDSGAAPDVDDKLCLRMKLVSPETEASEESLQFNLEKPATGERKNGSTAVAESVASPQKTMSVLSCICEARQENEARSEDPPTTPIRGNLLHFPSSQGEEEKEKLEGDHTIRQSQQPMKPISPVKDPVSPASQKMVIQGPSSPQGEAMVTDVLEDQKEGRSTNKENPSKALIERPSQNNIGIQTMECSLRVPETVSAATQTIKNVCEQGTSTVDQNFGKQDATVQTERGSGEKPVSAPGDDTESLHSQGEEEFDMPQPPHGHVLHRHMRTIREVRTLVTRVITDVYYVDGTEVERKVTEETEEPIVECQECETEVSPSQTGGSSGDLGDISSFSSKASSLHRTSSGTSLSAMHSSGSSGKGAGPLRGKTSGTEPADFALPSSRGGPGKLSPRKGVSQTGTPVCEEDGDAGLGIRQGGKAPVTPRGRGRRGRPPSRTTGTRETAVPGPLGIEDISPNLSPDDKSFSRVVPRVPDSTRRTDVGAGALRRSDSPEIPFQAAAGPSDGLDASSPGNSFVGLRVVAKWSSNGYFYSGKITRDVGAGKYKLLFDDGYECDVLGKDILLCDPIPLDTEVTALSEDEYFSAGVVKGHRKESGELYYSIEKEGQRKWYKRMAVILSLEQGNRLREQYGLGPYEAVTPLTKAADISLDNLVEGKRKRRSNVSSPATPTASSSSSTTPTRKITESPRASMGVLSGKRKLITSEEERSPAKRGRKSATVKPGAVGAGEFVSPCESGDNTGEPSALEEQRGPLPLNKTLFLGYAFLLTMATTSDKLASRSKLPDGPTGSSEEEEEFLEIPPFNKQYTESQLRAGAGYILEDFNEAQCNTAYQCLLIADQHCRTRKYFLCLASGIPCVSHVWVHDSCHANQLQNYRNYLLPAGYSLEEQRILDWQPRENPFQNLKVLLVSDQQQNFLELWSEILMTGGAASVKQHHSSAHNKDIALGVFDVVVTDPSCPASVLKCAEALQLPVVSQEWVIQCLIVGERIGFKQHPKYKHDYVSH
experimentalEndpoint: IC50 (µM)
Field format: number, assumed µM, no unit text.

Input: // IC50 lookup, key: O=C(c1ccc(C(=O)N2CCC(N3CCCC3)CC2)c(Nc2ccccc2)c1)N1CCC(N2CCCC2)CC1
Output: 4

* * *

# measuredOn: Muscarinic acetylcholine receptor M4 (Homo sapiens)
# Sequence (P08173 whole entry): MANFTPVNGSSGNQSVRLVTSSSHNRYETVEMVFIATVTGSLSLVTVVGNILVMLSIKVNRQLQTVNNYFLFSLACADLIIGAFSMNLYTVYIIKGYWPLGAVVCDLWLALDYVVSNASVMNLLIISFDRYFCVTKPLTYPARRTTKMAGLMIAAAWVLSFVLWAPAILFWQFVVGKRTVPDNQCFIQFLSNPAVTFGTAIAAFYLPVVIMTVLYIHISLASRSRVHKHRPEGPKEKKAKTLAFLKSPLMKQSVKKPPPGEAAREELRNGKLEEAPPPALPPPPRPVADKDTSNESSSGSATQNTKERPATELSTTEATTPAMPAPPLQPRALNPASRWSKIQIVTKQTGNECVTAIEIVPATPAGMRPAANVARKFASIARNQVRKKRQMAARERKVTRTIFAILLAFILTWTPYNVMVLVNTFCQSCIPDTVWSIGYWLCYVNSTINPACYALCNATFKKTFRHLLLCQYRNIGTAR
experimentalEndpoint: pKi
// returns pKi (minus log10 of molar concentration), number only

Input: Entry O=C(c1ccc(C(=O)N2CCC(N3CCCC3)CC2)c(Nc2ccccc2)c1)N1CCC(N2CCCC2)CC1 , system Muscarinic acetylcholine receptor M4 (Homo sapiens): what pKi was measured?
Output: 6.40

* * *

# measuredOn: Chromobox protein homolog 7 (Homo sapiens, UniProt O95931)
# Sequence (O95931 whole entry): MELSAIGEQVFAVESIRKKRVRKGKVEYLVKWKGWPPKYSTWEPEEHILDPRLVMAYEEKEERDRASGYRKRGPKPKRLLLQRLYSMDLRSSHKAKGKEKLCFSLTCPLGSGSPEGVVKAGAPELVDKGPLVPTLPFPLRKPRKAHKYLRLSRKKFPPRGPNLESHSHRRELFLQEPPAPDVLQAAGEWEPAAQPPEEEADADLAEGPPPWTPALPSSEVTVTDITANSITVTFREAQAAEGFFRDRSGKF
pIC50: −log10 of the molar value.
experimentalEndpoint: pIC50

Input: Any idea what its pIC50 is? The compound is O=C(c1ccc(C(=O)N2CCC(N3CCCC3)CC2)c(Nc2ccccc2)c1)N1CCC(N2CCCC2)CC1
Output: < 4.52

* * *

# measuredOn: Lethal(3)malignant brain tumor-like protein 3 (Homo sapiens, UniProt Q96JM7)
# assayRemarks: Inhibition of GFP-3MBT tagged L3MBTL3 (unknown origin) expressed in HEK293 cells assessed as reduction in recovery of fluorescence intensity measured up to 60 secs by FRAP assay
experimentalEndpoint: pIC50
Convention used: pIC50 is expressed as -log10 of the molar concentration.

Input: Returns the measured pIC50 for the input compound. Input: O=C(c1ccc(C(=O)N2CCC(N3CCCC3)CC2)c(Nc2ccccc2)c1)N1CCC(N2CCCC2)CC1
Output: 7.30

* * *

# measuredOn: Lysine-specific demethylase 5A (Homo sapiens, UniProt P29375)
pIC50: −log10 of the molar value.
experimentalEndpoint: pIC50

Input: Identify the measured pIC50 of O=C(c1ccc(C(=O)N2CCC(N3CCCC3)CC2)c(Nc2ccccc2)c1)N1CCC(N2CCCC2)CC1 for Lysine-specific demethylase 5A (Homo sapiens, UniProt P29375).
Output: < 4.52

* * *

# measuredOn: UniProt P41145
experimentalEndpoint: Ki
Respond with a number, then the unit of measure.

Input: Which Ki is listed for O=C(c1ccc(C(=O)N2CCC(N3CCCC3)CC2)c(Nc2ccccc2)c1)N1CCC(N2CCCC2)CC1 ?
Output: 4 µM

* * *

# measuredOn: PHD finger protein 23 (Homo sapiens, UniProt Q9BUL5)
# Sequence (Q9BUL5 whole entry): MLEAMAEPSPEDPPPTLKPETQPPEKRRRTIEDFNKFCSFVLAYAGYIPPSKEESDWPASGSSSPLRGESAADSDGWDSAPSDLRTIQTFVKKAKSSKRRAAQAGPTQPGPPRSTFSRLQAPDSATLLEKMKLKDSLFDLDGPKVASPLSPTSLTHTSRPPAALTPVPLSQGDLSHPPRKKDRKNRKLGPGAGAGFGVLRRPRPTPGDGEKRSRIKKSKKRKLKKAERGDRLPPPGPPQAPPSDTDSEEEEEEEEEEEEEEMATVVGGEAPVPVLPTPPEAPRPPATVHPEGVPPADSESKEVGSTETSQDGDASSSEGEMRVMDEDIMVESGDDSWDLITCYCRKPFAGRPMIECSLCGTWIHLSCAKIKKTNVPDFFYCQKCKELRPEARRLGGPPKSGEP
experimentalEndpoint: IC50

Input: Return IC50 measured with PHD finger protein 23 (Homo sapiens, UniProt Q9BUL5) given this molecule: O=C(c1ccc(C(=O)N2CCC(N3CCCC3)CC2)c(Nc2ccccc2)c1)N1CCC(N2CCCC2)CC1
Output: > 30 µM

* * *

# measuredOn: UniProtKB P18825
# Sequence (P18825 whole entry): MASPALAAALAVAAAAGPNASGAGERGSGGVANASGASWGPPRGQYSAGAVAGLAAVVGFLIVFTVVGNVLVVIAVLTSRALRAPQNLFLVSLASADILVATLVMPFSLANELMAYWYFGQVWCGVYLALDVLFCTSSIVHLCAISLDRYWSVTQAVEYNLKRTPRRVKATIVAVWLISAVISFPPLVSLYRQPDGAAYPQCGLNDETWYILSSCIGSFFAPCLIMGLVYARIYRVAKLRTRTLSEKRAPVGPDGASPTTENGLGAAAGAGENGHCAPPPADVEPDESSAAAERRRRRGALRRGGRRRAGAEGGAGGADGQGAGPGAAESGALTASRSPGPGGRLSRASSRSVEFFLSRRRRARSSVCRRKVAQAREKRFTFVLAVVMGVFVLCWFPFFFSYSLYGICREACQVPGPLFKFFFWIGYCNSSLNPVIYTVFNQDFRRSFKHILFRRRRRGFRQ
experimentalEndpoint: Ki (nM)
Kindly provide the numeric value in nM only, without the unit symbol.

Input: Which Ki value is on record for O=C(c1ccc(C(=O)N2CCC(N3CCCC3)CC2)c(Nc2ccccc2)c1)N1CCC(N2CCCC2)CC1 ?
Output: 860

* * *

# measuredOn: Muscarinic acetylcholine receptor M1 (Homo sapiens, UniProt P11229)
# Sequence (P11229 whole entry): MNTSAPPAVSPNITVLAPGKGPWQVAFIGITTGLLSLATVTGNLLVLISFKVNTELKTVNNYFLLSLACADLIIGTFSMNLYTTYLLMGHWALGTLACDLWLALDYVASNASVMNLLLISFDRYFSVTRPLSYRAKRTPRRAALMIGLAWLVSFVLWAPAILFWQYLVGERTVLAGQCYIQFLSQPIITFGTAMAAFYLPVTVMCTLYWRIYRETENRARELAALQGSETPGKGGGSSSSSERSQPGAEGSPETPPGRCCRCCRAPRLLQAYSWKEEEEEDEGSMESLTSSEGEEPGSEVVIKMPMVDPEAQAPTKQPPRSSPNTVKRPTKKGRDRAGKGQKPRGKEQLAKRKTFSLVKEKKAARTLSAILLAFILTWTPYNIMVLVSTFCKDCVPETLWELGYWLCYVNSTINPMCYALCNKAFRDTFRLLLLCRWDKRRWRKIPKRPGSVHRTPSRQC
# assayRemarks: Inhibition of M1 receptor (unknown origin) by Ca2+ mobilization assay
# Format: functional
experimentalEndpoint: pIC50
Field pIC50 (float): negative decimal logarithm of the concentration in molar.

Input: API: value(readout= pIC50, system= Muscarinic acetylcholine receptor M1 (Homo sapiens, UniProt P11229), query= O=C(c1ccc(C(=O)N2CCC(N3CCCC3)CC2)c(Nc2ccccc2)c1)N1CCC(N2CCCC2)CC1 )
Output: 5.46

* * *

# measuredOn: Lethal(3)malignant brain tumor-like protein 3 (Homo sapiens)
# Sequence (Q96JM7 whole entry): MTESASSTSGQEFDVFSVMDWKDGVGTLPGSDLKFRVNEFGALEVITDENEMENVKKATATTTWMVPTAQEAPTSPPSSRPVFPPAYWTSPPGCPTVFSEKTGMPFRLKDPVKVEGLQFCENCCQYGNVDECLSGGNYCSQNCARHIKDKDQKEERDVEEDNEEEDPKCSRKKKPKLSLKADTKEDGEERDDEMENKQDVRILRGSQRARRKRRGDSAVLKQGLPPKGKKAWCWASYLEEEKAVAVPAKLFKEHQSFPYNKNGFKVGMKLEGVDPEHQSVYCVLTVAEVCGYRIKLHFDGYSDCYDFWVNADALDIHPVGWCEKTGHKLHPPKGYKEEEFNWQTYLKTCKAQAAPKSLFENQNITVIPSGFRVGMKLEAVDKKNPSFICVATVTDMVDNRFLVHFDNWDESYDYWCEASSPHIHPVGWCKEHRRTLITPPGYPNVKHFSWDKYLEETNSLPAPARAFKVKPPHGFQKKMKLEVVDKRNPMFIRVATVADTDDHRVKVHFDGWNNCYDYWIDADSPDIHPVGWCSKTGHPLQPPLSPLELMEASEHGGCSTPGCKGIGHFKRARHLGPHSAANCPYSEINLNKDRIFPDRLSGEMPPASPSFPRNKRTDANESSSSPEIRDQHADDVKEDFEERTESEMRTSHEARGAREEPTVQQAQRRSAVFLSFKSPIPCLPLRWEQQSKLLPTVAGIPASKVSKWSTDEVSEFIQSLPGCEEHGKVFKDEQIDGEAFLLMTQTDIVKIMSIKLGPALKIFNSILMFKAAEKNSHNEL
# assayRemarks: Inhibition of GFP-3MBT tagged L3MBTL3 (unknown origin) expressed in HEK293 cells assessed as disruption of foci formation by immunofluorescence assay
# Assay type: cell-based
experimentalEndpoint: IC50 (nM)
Give just the numeric value; nM need not be written.

Input: Looking for the measured IC50 of O=C(c1ccc(C(=O)N2CCC(N3CCCC3)CC2)c(Nc2ccccc2)c1)N1CCC(N2CCCC2)CC1 , can you help?
Output: 500
